Recorded pIC50 for the following compounds
system: mouse colon carcinoma (CT-26) cells; experiment: (Photo-)cytotoxicity on 2D cell monolayers, resazurin assay, CT-26; details: read-out: IC50 dark; CT-26, dark; 4 h incubation; compounds 1-3 as chloride salts
pIC50: −log10 of the molar value.

# COMPOUND, pIC50
measured = [
    ("CN(C)c1ccc(/C=C/c2ccnc(-c3cc(/C=C/c4ccc(N(C)C)cc4)ccn3)c2)cc1.F[P-](F)(F)(F)(F)F.F[P-](F)(F)(F)(F)F.[Ru+2].c1cnc2c(c1)ccc1cccnc12.c1cnc2c(c1)ccc1cccnc12 [Compound 8]", "< 4.00"),
    ("CN(C)c1ccc(/C=C/c2ccnc(-c3cc(/C=C/c4ccc(N(C)C)cc4)ccn3)c2)cc1.CN(C)c1ccc(/C=C/c2ccnc(-c3cc(/C=C/c4ccc(N(C)C)cc4)ccn3)c2)cc1.F[P-](F)(F)(F)(F)F.F[P-](F)(F)(F)(F)F.[Ru+2].c1ccc(-c2ccccn2)nc1 [Compound 4]", "< 4.00"),
    ("CN(C)c1ccc(/C=C/c2ccnc(-c3cc(/C=C/c4ccc(N(C)C)cc4)ccn3)c2)cc1.F[P-](F)(F)(F)(F)F.F[P-](F)(F)(F)(F)F.[Ru+2].c1ccc(-c2ccnc3c2ccc2c(-c4ccccc4)ccnc23)cc1.c1ccc(-c2ccnc3c2ccc2c(-c4ccccc4)ccnc23)cc1 [Compound 10]", 5.28),
    ("COc1ccc(/C=C/c2ccnc(-c3cc(/C=C/c4ccc(OC)cc4)ccn3)c2)cc1.COc1ccc(/C=C/c2ccnc(-c3cc(/C=C/c4ccc(OC)cc4)ccn3)c2)cc1.F[P-](F)(F)(F)(F)F.F[P-](F)(F)(F)(F)F.[Ru+2].c1ccc(-c2ccccn2)nc1 [Compound 5]", "< 4.00"),
]

* * *

human glioblastoma astrocytoma (U373) cells measurements of IC50, listed per entry.

# COMPOUND, SYSTEM_UNDER_TEST, CENSORING_QUALIFIER, IC50 [µM]
records = [
    ("F[P-](F)(F)(F)(F)F.F[P-](F)(F)(F)(F)F.[Ru+2].c1cnc2c(c1)ccc1cccnc12.c1cnc2c(c1)ccc1cccnc12.c1cnc2c(c1)ccc1cccnc12 [[Ru(1,10-phenanthroline)3][PF6]2, reference compound]", "human glioblastoma astrocytoma (U373) cells", ">", 100),
    ("CN(C)c1ccc(/C=C/c2ccnc(-c3cc(/C=C/c4ccc(N(C)C)cc4)ccn3)c2)cc1.CN(C)c1ccc(/C=C/c2ccnc(-c3cc(/C=C/c4ccc(N(C)C)cc4)ccn3)c2)cc1.CN(C)c1ccc(/C=C/c2ccnc(-c3cc(/C=C/c4ccc(N(C)C)cc4)ccn3)c2)cc1.F[P-](F)(F)(F)(F)F.F[P-](F)(F)(F)(F)F.[Ru+2]", "human glioblastoma astrocytoma (U373) cells", "=", 61.4),
]

* * *

pIC50: −log10 of the molar value.
human glioblastoma astrocytoma (U373) cells measurements of pIC50, listed per entry.
QUANTITY: pIC50

# COMPOUND, RECORDED_NUMBER
rows = [
    ("COc1ccc(/C=C/c2ccnc(-c3cc(/C=C/c4ccc(OC)cc4)ccn3)c2)cc1.COc1ccc(/C=C/c2ccnc(-c3cc(/C=C/c4ccc(OC)cc4)ccn3)c2)cc1.COc1ccc(/C=C/c2ccnc(-c3cc(/C=C/c4ccc(OC)cc4)ccn3)c2)cc1.F[P-](F)(F)(F)(F)F.F[P-](F)(F)(F)(F)F.[Ru+2] [Compound 3]", 4.29),
    ("C(=C\\c1ccnc(-c2cc(/C=C/c3ccccc3)ccn2)c1)/c1ccccc1.C(=C\\c1ccnc(-c2cc(/C=C/c3ccccc3)ccn2)c1)/c1ccccc1.C(=C\\c1ccnc(-c2cc(/C=C/c3ccccc3)ccn2)c1)/c1ccccc1.F[P-](F)(F)(F)(F)F.F[P-](F)(F)(F)(F)F.[Ru+2] [Compound 1]", 4.08),
    ("CN(C)c1ccc(/C=C/c2ccnc(-c3cc(/C=C/c4ccc(N(C)C)cc4)ccn3)c2)cc1.CN(C)c1ccc(/C=C/c2ccnc(-c3cc(/C=C/c4ccc(N(C)C)cc4)ccn3)c2)cc1.F[P-](F)(F)(F)(F)F.F[P-](F)(F)(F)(F)F.[Ru+2].c1ccc(-c2ccccn2)nc1 [Compound 4]", 4.72),
    ("CN(C)c1ccc(/C=C/c2ccnc(-c3cc(/C=C/c4ccc(N(C)C)cc4)ccn3)c2)cc1.F[P-](F)(F)(F)(F)F.F[P-](F)(F)(F)(F)F.[Ru+2].c1ccc(-c2ccnc3c2ccc2c(-c4ccccc4)ccnc23)cc1.c1ccc(-c2ccnc3c2ccc2c(-c4ccccc4)ccnc23)cc1 [Compound 10]", 5.68),
    ("COc1ccc(C=Cc2ccnc(-c3cc(C=Cc4ccc(OC)cc4)ccn3)c2)cc1.F[P-](F)(F)(F)(F)F.F[P-](F)(F)(F)(F)F.[Ru+2].c1ccc(-c2ccnc3c2ccc2c(-c4ccccc4)ccnc23)cc1.c1ccc(-c2ccnc3c2ccc2c(-c4ccccc4)ccnc23)cc1 [Compound 11]", 6.15),
    ("C=CC1=C(C)c2cc3[nH]c(cc4nc(cc5[nH]c(cc1n2)c(C)c5CCC(=O)O)C(CCC(=O)O)=C4C)c(C)c3C=C [PpIX, Protoporphyrin IX, reference compound]", 5.92),
]
